Reported Dmax values for a set of molecules
# tgt: HDAC2 (Homo sapiens, UniProt Q92769)
# Construct: endogenous in cells; host or cells: HCT116
# Sequence (Q92769 whole entry): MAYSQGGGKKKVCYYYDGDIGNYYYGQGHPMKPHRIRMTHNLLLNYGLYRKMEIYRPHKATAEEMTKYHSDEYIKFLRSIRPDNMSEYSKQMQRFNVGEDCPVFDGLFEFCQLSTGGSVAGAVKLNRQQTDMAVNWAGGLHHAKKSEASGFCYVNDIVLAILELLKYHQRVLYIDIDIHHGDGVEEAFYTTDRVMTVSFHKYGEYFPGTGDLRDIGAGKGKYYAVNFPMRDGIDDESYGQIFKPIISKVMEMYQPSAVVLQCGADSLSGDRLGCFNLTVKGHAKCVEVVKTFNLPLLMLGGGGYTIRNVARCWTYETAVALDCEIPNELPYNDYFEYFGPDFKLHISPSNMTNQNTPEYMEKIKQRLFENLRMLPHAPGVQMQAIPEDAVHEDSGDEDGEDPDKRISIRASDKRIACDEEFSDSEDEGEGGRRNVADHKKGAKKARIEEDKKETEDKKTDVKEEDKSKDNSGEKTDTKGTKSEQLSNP
# assay.details: HDAC2 degradation in HCT116 cells, quantitative western blot
# Assay type: cell-based
# condition.details: HCT-116, 24 h; HCT116, screened at 0.1, 1 and 10 μM; maximum degradation irrespective of concentration; read-out: HDAC 2 Degrader (% Degradation)
Report as: number unit

Example cases with answers are listed next.
{"molecule": "Cc1ncsc1-c1ccc(CNC(=O)[C@@H]2C[C@@H](O)CN2C(=O)[C@@H](NC(=O)COCCCCCCOCC(=O)Nc2ccc(C(=O)Nc3ccccc3N)cc2)C(C)(C)C)cc1 [PROTAC12]", "Dmax": "46%"}
{"molecule": "Cc1ncsc1-c1ccc(CNC(=O)[C@@H]2C[C@@H](O)CN2C(=O)[C@@H](NC(=O)CCCCCCCCCCCCC(=O)Nc2ccc(C(=O)Nc3ccccc3N)cc2)C(C)(C)C)cc1 [PROTAC34]", "Dmax": "44%"}
{"molecule": "Cc1ncsc1-c1ccc(CNC(=O)[C@@H]2C[C@@H](O)CN2C(=O)[C@@H](NC(=O)CCCCCCCCCCC(=O)Nc2ccc(C(=O)Nc3ccccc3N)cc2)C(C)(C)C)cc1 [PROTAC4]", "Dmax": "76%"}

Report Dmax, nothing else, for this molecule: Cc1ncsc1-c1ccc(CNC(=O)[C@@H]2C[C@@H](O)CN2C(=O)[C@@H](NC(=O)CCCCCCCn2cc(COC(=O)NCc3ccc(C(=O)Nc4ccccc4N)cc3)nn2)C(C)(C)C)cc1 [PROTAC29]
23%
